The origin of these recorded values is PubChem BioAssay AID1996.

- recordedConditions: buffer; pH 7.4; 200.0 µM
Below, each entry is listed alongside its reported solubility kinetic.

[
  {
    "compound": "COc1ccc(NC(=O)c2sc3nc(C)cc(C)c3c2N)cc1",
    "solubility kinetic": "< 0.2 µg/mL"
  },
  {
    "compound": "COc1cccc(/C=C/C(=O)OCC(=O)NC2CC2)c1",
    "solubility kinetic": "> 41.3 µg/mL"
  },
  {
    "compound": "Cc1nnc(SCC(=O)Nc2cccc(N)c2)n1-c1ccccc1",
    "solubility kinetic": "> 50.9 µg/mL"
  }
]

###

- recordedConditions: buffer; pH 7.4; 200.0 µM
Readings of solubility kinetic for the listed compounds
assayReadout: solubility kinetic (µg/mL)

[
  {
    "compound": "C/C(=N\\O)c1oc2ccc3c(C)cc(=O)oc3c2c1C",
    "unitName": "µg/mL",
    "inequalityOperator": "<",
    "readoutNumber": 0.6
  },
  {
    "compound": "CCC(CC)NC(=O)Nc1ccccc1C(F)(F)F",
    "unitName": "µg/mL",
    "inequalityOperator": "=",
    "readoutNumber": 10.8
  },
  {
    "compound": "O=C(CNC(=O)c1ccc2ccccc2c1)NC1CCCCC1",
    "unitName": "µg/mL",
    "inequalityOperator": "=",
    "readoutNumber": 13
  },
  {
    "compound": "CC(C)c1cc(=O)n2c(nc3ccccc32)[nH]1",
    "unitName": "µg/mL",
    "inequalityOperator": ">",
    "readoutNumber": 34.1
  },
  {
    "compound": "Cc1ccc(N2CC(C(=O)Nc3cccnc3)CC2=O)cc1Cl (stereo not drawn)",
    "unitName": "µg/mL",
    "inequalityOperator": "=",
    "readoutNumber": 45.8
  },
  {
    "compound": "Cc1ccc(CC(=O)Nc2nccs2)cc1",
    "unitName": "µg/mL",
    "inequalityOperator": "=",
    "readoutNumber": 29.8
  },
  {
    "compound": "CC(C)CCNC(=O)c1ccc(-n2cnc3cccnc32)cc1",
    "unitName": "µg/mL",
    "inequalityOperator": ">",
    "readoutNumber": 46.3
  },
  {
    "compound": "CCOC(=O)c1sc2ncnc(Nc3cccc(C(=O)O)c3)c2c1C",
    "unitName": "µg/mL",
    "inequalityOperator": ">",
    "readoutNumber": 53.6
  },
  {
    "compound": "Cc1ccc(NC(=O)COC(=O)CC2CC3CCC2C3)cc1S(=O)(=O)N1CCOCC1 (stereo not drawn)",
    "unitName": "µg/mL",
    "inequalityOperator": "=",
    "readoutNumber": 10.2
  },
  {
    "compound": "Cn1cccc1CNC(=S)Nc1ccccc1F",
    "unitName": "µg/mL",
    "inequalityOperator": ">",
    "readoutNumber": 39.5
  },
  {
    "compound": "O=C(NCC(c1ccco1)N1CCCCC1)c1cnc(Cl)c(Cl)c1 (stereo not drawn)",
    "unitName": "µg/mL",
    "inequalityOperator": ">",
    "readoutNumber": 55.2
  },
  {
    "compound": "Nc1cccc2cc(-c3ccccc3)oc12",
    "unitName": "µg/mL",
    "inequalityOperator": "=",
    "readoutNumber": 2.4
  },
  {
    "compound": "Cc1ccc(S(=O)(=O)NCc2ccccc2)cc1C(=O)NCc1ccccn1",
    "unitName": "µg/mL",
    "inequalityOperator": "=",
    "readoutNumber": 48.1
  }
]
